Test system: TI-73;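 further: cell viability assay measuring how much compounds suppress growth of the cultured cell line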
test-protocol: cells
Format: functional, cell-based, Homo sapiens
reported-conditions: ti-73
Description: SANGER: Inhibition of human TI-73 cell growth in a cell viability assay.
pIC50: −log10 of the molar value.
reported-endpoint: pIC50

• CISPLATIN = 5.07

----------
Test system: ECC4;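 further: growth inhibition of ECC4 cells, read out with a cell viability assay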
test-protocol: cells
Type: functional, cell-based, Homo sapiens
reported-conditions: Homo sapiens, ECC4
Description: SANGER: Inhibition of human ECC4 cell growth in a cell viability assay.
pIC50: −log10 of the molar value. Where a name gives a salt, the structure may show the parent alone.
# pIC50 listing for each entry below
reported-endpoint: pIC50

• OCCCNc1cc(-c2ccnc(Nc3cccc(Cl)c3)n2)ccn1 = < 6.59
• COC1=CC(c2cc3ccccc3[nH]2)=N/C1=C\c1[nH]c(C)cc1C [OBATOCLAX MESYLATE] = 5.29
• C#Cc1cccc(Nc2ncnc3cc(OCCOC)c(OCCOC)cc23)c1 = < 5.70
• COc1cc(-c2nn([C@H]3CC[C@H](N4CCN(C(C)=O)CC4)CC3)c3ncnc(N)c23)ccc1NC(=O)c1cc2ccccc2n1C = < 5.29
• Oc1ccc2ccccc2c1SSc1c(O)ccc2ccccc12 = < 4.49
• C=C(c1ccc(C(=O)O)cc1)c1cc2c(cc1C)C(C)(C)CCC2(C)C = < 5.10
• CCN(CC)CCNC(=O)c1c(C)[nH]c(/C=C2\C(=O)Nc3ccc(F)cc32)c1C = < 5.10
